experiment: Pharmacokinetics of lutein and zeaxanthin with/without epi-lutein after intravenous administration; assay type: in vivo, wistar rats; conditions: rat, 4 mg/kg; heading: AUC0-t; wistar rats, intravenous; A 4 mg lutein/Kg, B 2 mg lutein+2 mg epi-lutein/Kg, C 4 mg zeaxanthin/Kg, D 2 mg zeaxanthin+2 mg epi-lutein/Kg; lutein (A,B) or zeaxanthin (C,D) in plasma
Test Readout: AUC(0-t) (ng·h/mL)

- Smiles Str: "CC1=C[C@H](O)CC(C)(C)[C@H]1/C=C/C(C)=C/C=C/C(C)=C/C=C/C=C(C)/C=C/C=C(C)/C=C/C1=C(C)C[C@@H](O)CC1(C)C"
  Measured Result: 11700

* * *

Assay: Epi-lutein study: plasma levels after oral administration (gavage) for 7 consecutive days
Assay type: in vivo, Rats, Sprague-Dawley
Conditions: Sprague-Dawley, rat, plasma; Treatment II (0.147 mg lutein + 0.135 mg epi-lutein/kg BW, oral gavage), day 7, τ 24 hours; read-out: AUC0-τ
Procedure: [table] Study Design: Oral administration (gavage) of Treatment I for 7 consecutive days in 5 rats followed by a 14 days wash-out period and oral administration (gavage) of Treatment II for 7 consecutive days Blood Sampling: On day 7 of treatment prior to treatment and 15 min, 1, 3, 6, 9, 12 and 24 hours after treatment. About 400 μL blood were be transferred to Vacutainer tubes containing EDTA. […]
Test Readout: AUC (ng·h/mL)

- Smiles Str: "CC1=C[C@H](O)CC(C)(C)[C@H]1/C=C/C(C)=C/C=C/C(C)=C/C=C/C=C(C)/C=C/C=C(C)/C=C/C1=C(C)C[C@@H](O)CC1(C)C"
  Measured Result: 14300

* * *

assay: Epi-lutein study: plasma levels after oral administration (gavage) for 7 consecutive days; assay type: in vivo, Rats, Sprague-Dawley; details: Sprague-Dawley; Treatment II (0.147 mg lutein + 0.135 mg epi-lutein/kg BW, oral gavage), day 7, rat plasma; read-out: Cmax

- Smiles Str: "CC1=C[C@H](O)CC(C)(C)[C@H]1/C=C/C(C)=C/C=C/C(C)=C/C=C/C=C(C)/C=C/C=C(C)/C=C/C1=C(C)C[C@@H](O)CC1(C)C"
  Unit Of Measurement: "ng/mL"
  Cmax: 939

* * *

Assay: Epi-lutein study: plasma levels after oral administration (gavage) for 7 consecutive days
Assay type: in vivo, Rats, Sprague-Dawley
Conditions: Sprague-Dawley, 0.282 mg/kg BW; Treatment I (0.282 mg lutein/kg BW, oral gavage), day 7, rat plasma; read-out: Cmax
Experimental: [table] Study Design: Oral administration (gavage) of Treatment I for 7 consecutive days in 5 rats followed by a 14 days wash-out period and oral administration (gavage) of Treatment II for 7 consecutive days Blood Sampling: On day 7 of treatment prior to treatment and 15 min, 1, 3, 6, 9, 12 and 24 hours after treatment. About 400 μL blood were be transferred to Vacutainer tubes containing EDTA. […]
Test Readout: Cmax (ng/mL)

- Smiles Str: "CC1=C[C@H](O)CC(C)(C)[C@H]1/C=C/C(C)=C/C=C/C(C)=C/C=C/C=C(C)/C=C/C=C(C)/C=C/C1=C(C)C[C@@H](O)CC1(C)C"
  Measured Result: 941

* * *

test: Pharmacokinetics of lutein and zeaxanthin with/without epi-lutein after intravenous administration; assay type: in vivo, wistar rats; settings: rat, 4 mg/kg; heading: AUC0-inf; wistar rats, intravenous; A 4 mg lutein/Kg, B 2 mg lutein+2 mg epi-lutein/Kg, C 4 mg zeaxanthin/Kg, D 2 mg zeaxanthin+2 mg epi-lutein/Kg; lutein (A,B) or zeaxanthin (C,D) in plasma
Test Readout: AUC(0-inf) (ng·h/mL)

- Compound: "CC1=C[C@H](O)CC(C)(C)[C@H]1/C=C/C(C)=C/C=C/C(C)=C/C=C/C=C(C)/C=C/C=C(C)/C=C/C1=C(C)C[C@@H](O)CC1(C)C [Lutein]"
  Test Readout: "AUC(0-inf)"
  Measured Result: 21300
